Values were extracted from ChEMBL document CHEMBL3853331.

# STUDY_SYSTEM: Voltage-dependent T-type calcium channel subunit alpha-1H (Homo sapiens)
# Sequence (O95180 whole entry): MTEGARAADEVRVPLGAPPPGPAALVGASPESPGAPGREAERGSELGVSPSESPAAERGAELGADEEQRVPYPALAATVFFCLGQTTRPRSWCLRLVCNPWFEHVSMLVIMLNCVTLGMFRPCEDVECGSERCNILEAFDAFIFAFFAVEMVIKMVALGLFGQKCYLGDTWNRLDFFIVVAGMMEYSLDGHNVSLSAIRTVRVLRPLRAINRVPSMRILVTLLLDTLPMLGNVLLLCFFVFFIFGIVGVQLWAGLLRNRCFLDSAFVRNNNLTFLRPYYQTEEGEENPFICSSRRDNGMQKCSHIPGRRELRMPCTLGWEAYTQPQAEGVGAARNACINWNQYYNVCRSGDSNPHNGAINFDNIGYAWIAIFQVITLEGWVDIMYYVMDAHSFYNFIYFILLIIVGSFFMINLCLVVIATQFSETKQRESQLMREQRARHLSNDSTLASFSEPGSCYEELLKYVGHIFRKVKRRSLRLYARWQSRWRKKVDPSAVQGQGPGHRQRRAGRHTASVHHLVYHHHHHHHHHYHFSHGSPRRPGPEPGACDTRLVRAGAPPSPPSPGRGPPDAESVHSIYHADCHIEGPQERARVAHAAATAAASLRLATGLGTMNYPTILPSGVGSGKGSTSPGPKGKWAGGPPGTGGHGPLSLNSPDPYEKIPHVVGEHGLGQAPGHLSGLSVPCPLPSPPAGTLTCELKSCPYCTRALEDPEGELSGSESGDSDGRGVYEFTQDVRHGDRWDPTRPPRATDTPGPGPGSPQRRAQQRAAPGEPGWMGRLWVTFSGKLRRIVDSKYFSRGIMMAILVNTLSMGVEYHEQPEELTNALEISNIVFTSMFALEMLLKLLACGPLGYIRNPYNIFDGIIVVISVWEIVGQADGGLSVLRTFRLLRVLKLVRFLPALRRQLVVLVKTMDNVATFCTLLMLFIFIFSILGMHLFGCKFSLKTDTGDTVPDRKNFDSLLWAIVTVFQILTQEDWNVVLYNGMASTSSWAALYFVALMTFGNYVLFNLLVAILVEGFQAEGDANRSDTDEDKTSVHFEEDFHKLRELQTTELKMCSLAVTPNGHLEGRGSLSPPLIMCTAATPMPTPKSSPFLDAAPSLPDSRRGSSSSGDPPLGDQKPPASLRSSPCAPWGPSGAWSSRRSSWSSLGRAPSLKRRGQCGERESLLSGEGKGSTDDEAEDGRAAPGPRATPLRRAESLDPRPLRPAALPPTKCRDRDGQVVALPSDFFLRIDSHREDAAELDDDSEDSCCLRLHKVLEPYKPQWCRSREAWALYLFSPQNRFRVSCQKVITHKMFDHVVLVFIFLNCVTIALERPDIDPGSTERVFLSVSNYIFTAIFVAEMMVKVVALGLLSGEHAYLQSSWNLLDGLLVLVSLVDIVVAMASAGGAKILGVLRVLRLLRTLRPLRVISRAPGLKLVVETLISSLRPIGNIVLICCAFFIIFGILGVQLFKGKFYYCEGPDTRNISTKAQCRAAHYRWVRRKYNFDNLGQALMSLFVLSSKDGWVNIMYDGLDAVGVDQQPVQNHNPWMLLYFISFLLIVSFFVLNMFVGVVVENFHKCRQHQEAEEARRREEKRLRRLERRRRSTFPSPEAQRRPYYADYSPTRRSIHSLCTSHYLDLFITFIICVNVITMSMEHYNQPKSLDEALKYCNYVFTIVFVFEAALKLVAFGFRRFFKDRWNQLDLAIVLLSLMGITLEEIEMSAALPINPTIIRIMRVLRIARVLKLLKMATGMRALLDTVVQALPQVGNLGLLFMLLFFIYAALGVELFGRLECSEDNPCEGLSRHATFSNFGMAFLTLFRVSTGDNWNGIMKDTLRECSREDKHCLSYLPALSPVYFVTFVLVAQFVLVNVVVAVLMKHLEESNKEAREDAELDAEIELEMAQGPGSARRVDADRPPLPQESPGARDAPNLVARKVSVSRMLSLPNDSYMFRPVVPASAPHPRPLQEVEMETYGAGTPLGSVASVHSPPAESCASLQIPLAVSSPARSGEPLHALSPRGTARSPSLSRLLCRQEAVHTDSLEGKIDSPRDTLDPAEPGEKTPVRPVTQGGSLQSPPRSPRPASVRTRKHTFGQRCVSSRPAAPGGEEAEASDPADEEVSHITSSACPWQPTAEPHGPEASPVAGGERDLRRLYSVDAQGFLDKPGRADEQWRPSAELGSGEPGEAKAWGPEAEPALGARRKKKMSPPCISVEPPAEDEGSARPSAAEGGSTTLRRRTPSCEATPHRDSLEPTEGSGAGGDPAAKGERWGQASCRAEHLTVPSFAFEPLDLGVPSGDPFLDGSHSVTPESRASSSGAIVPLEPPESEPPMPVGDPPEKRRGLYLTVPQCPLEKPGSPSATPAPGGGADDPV
# EXPERIMENT_DESCRIPTION: Inhibition of recombinant T-type calcium channel Cav3.2 (unknown origin) expressed in HEK293 cells assessed as inhibition of CaCl2-induced calcium influx preincubated for 3 mins prior CaCl2 addition by Fluo-4-AM dye-based FLIPR assay
# Format: cell-based
ENDPOINT_NAME: IC50 (nM)

1) Cc1ccc(C2(CCN(C)C)CC(c3ccccc3)=NN2C(=O)Nc2ccc(F)cc2)cc1 (centres undefined) : 240
2) O=C(Nc1ccc(F)cc1)N1N=C(c2ccncc2)C[C@H]1c1ccc(F)cc1 : 21
3) COc1ccc([C@]2(CCO)CC(c3cccnc3)=NN2C(=O)Nc2ccc(Br)cc2)cc1 : 33
4) Cc1ccc(C2(CCN3CCOCC3)CC(c3ccccc3)=NN2C(=O)Nc2ccc(F)cc2)cc1 (centres undefined) : 430
5) COc1ccc(C2(CCO)CC(c3cccnc3)=NN2C(=O)Nc2ccc(Br)cc2)cc1 (centres undefined) : 140
6) COc1ccc(NC(=O)N2N=C(c3ccc(Br)cc3)CC2c2ccc(F)cc2)cc1 (centres undefined) : 447
7) O=C(Nc1ccc(F)cc1)N1N=C(c2ccccc2)CC1(CCO)c1ccccc1 (centres undefined) : 120
8) CS(=O)(=O)c1ccc(C2CC(c3ccncc3)=NN2C(=O)Nc2ccc(F)cc2)cc1 (centres undefined) : 410
